Every entry's value here was drawn from the supplement of paper PMC3545927.

# target.under.test: furin, P09958;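 also: purified furin at 1:10 enzyme:substrate in 50 mM HEPES pH 7.5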
# Sequence (P09958 whole entry): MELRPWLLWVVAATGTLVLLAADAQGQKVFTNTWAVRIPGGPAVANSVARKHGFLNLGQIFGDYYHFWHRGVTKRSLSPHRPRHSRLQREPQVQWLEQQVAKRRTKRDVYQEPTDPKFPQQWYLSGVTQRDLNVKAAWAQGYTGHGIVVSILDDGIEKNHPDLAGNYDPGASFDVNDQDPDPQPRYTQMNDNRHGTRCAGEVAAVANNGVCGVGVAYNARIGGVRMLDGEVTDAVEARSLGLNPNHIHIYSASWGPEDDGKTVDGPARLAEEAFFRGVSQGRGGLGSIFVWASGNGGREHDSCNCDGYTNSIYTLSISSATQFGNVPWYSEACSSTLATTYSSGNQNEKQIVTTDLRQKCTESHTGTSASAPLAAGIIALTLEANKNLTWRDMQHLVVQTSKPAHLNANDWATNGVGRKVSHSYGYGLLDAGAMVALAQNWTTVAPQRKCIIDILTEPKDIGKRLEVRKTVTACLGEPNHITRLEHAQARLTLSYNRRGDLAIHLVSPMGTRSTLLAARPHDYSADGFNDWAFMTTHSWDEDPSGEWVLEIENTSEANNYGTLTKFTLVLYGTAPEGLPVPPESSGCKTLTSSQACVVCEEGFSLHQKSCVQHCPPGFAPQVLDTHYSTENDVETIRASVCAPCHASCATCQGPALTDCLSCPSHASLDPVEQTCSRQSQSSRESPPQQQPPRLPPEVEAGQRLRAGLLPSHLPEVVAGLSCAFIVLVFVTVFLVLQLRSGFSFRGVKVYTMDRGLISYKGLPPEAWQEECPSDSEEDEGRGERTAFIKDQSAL
# protocol.text: furin cleavage Z-score vs untreated control; higher = more cleavage, active = 3.5 or more, inactive = 1 or less, 8 variable residues between constant flanks
# test.context: 15 min
Some of the results follow. The true hit rate is not given.
Label rule, in plain words: furin cleavage Z-score of 7 and up is 1, under 7 is -1.

{"columns": ["monomer.sequence", "assigned.label"],
 "data": [
  ["CARKIRIKGIAGNASASA [FS-2558]", -1],
  ["CARRPRFKDIAGNASASA [FS-3058]", -1],
  ["CAKWSRHRRMAGNASASA [FS-175]", 1],
  ["CAVFDITKLLAGNASASA [HC603]", -1],
  ["CARKMRLGDAAGNASASA [FS-1728]", -1],
  ["CADQMEECSQAGNASASA [HC1822]", -1],
  ["CACWPRHRRVAGNASASA [FS-1314]", -1],
  ["CAMRLRIRRMAGNASASA [FS-1601]", 1],
  ["CARHSRKKRLAGNASASA [FS-1259]", 1],
  ["CAMRAFQRRMAGNASASA [FS-276]", -1],
  ["CARRRRPERVAGNASASA [FS-3064]", -1],
  ["CATQRRGRTGAGNASASA [HC903]", -1],
  ["CATQSRIRRMAGNASASA [FS-511]", 1],
  ["CARRRRPRREAGNASASA [FS-1404]", 1]
]}
